The reported numbers originate from the RepoRT retention time repository (doi:10.1021/acs.analchem.1c00972).

- PROCEDURE_TEXT: RP, Waters ACQUITY UPLC BEH C18, 100 × 1 mm, 1.7 µm, 50 °C, 0.3 mL/min, estimated dead time 0.17 min; A: water + 10 mM ammonium bicarbonate; B: 10% water + 90% methanol + 10 mM ammonium bicarbonate; gradient (min/%B) 0/0 15/100 21/100 22/0 30/0
- CONDITION_INFO: stereoisomer not certain
QUANTITY_NAME: LC retention time (min)
# unit: min | format: bare number

[
  {
    "COMPOUND": "CN(CCO)CCO [Methyl diethanolamine]",
    "READOUT_UNITS": "min",
    "LC retention time": 2.65
  },
  {
    "COMPOUND": "CC1=C2C3OC(=O)C(C)C3CCC2(C)C=CC1=O (stereo not drawn) [alpha-Santonin]",
    "READOUT_UNITS": "min",
    "LC retention time": 11.5
  },
  {
    "COMPOUND": "CC1C(c2ccc(Cl)cc2)SC(=O)N1C(=O)NC1CCCCC1 (centres undefined) [Hexythiazox]",
    "READOUT_UNITS": "min",
    "LC retention time": 17.6
  },
  {
    "COMPOUND": "CN1C2CCC1C(C(=O)O)C(OC(=O)c1ccccc1)C2 (centres undefined) [Benzoylecgonin]",
    "READOUT_UNITS": "min",
    "LC retention time": 11.6
  },
  {
    "COMPOUND": "CCCCC(CC)COP(=O)(O)OCC(CC)CCCC (centres undefined) [Bis(2-ethylhexyl)phosphate]",
    "READOUT_UNITS": "min",
    "LC retention time": 17.2
  }
]

Now take the following compound into account.
Please indicate LC retention time recorded for CC1COC(=O)c2cc3c(cc21)C(C)(C)C(C)C3(C)C (centres undefined) [Galaxolidone]
16.9
